test: chemical genetic growth profiling, strain panel (AID 1159580);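 further: tested at 20 µM; growth read once vehicle control cultures reached saturation at 30 °C; 1 = growth at the plate median or of vehicle wells; lower values mean less growth of the strain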; conditions: S. cerevisiae deletion strains, growth OD, locus YLR320W, strain mms22, active compounds read low
Hit rate of the full screen: of about 5,500 compounds, about 2,000 (36%) were called active. Not shown: some 18% with an inconclusive outcome. The list shows a part of the results.
Quantity kind: normalized growth
Reply: number alone, nothing else.

| Compound | Quantity kind | Measurement |
| --- | --- | --- |
| C[C@H]1COc2c(N3CCN(C)CC3)c(F)cc3c(=O)c(C(=O)O)cn1c23 | normalized growth | 1.02 |
| CC1CCc2cc(F)cc3c(=O)c(C(=O)O)cn1c23 (stereo not drawn) | normalized growth | 0.972 |

Continue with the next compound.
Enquiry: Item under review: Clc1ccc(C(c2ccc(Cl)cc2)C(Cl)(Cl)Cl)cc1 . Reported normalized growth?
Return: 0.99

* * *

assay: chemical genetic growth profiling, strain panel (AID 1159580);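 further: tested at 20 µM; growth read once vehicle control cultures reached saturation at 30 °C; 1 = growth at the plate median or of vehicle wells; lower values mean less growth of the strain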; details: S. cerevisiae deletion strains, growth OD, locus YJR043C, strain POL32, active compounds read low
In all, about 5,500 compounds went through this assay and about 2,000 (36%) were called active. Roughly 18% stayed inconclusive and do not appear here. Some of the results follow.
Rule: measured normalized growth below 1 gets t; anything equal to or greater than 1 gets f.

Please review the following examples before continuing.
| Molecule | Assigned category |
| --- | --- |
| NCCC(O)C(=O)NC1CC(N)C(OC2OC(CN)C(O)C(O)C2N)C(OC2OC(CO)C(O)C2O)C1O (centres undefined) | f |
| C=CCc1ccc(OC(=O)c2ccccc2)c(OC)c1 | t |
| CC1(C)CCC[C@@]2(C)C1[C@@H](O)C[C@]1(C)C2CC[C@@H]2[C@@]3(C)CC[C@H](C(C)(C)O)[C@@H]3CC[C@@]21C (some centres undefined) | f |
| O=C(O)CSCc1ccccc1 | f |
| CC[C@@]1(O)C[C@H](O[C@H]2C[C@H](N(C)C)[C@H](O)[C@H](C)O2)c2c(cc3c(c2O)C(=O)c2c(O)ccc(O)c2C3=O)[C@H]1C(=O)OC | t |

Enquiry: Criterion: normalized growth strictly below 1. Is it met by Cc1cc(=O)n2[nH]cnc2n1 ?
Return: f

Enquiry: Criterion: normalized growth strictly below 1. Is it met by O=C(O)c1cncc(C#Cc2ccccc2)c1 ?
Return: t

Enquiry: Criterion: normalized growth strictly below 1. Is it met by CN1C2C[C@H](OC(=O)[C@H](CO)c3ccccc3)C[C@H]1[C@@H](O)C2 ?
Return: f

* * *

Catalogue of compounds with associated normalized growth
assay: chemical genetic growth profiling, strain panel (AID 1159580);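 further: tested at 20 µM; growth read once vehicle control cultures reached saturation at 30 °C; 1 = growth at the plate median or of vehicle wells; lower values mean less growth of the strain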; conditions: S. cerevisiae deletion strains, growth OD, locus YER015W, strain faa2, active compounds read low
Among all 5,500 compounds or so, about 2,000 (36%) were called active. Another 18% or so got no clear call; they are omitted. Some of the results follow.
Reply: number alone, nothing else.

| Compound | Measurement |
| --- | --- |
| Nc1nc(=S)c2[nH]cnc2[nH]1 | 0.983 |
| Cc1ccc(S(=O)(=O)NC(=O)NN2CCCCCC2)cc1 | 1 |

Continue with the next compound.
Enquiry: Item under review: Cc1ccccc1C(OCCN(C)C)c1ccccc1 (stereo not drawn) . Reported normalized growth?
Return: 1

* * *

Catalogue of compounds with associated normalized growth
assay: chemical genetic growth profiling, strain panel (AID 1159580);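 further: tested at 20 µM; growth read once vehicle control cultures reached saturation at 30 °C; 1 = growth at the plate median or of vehicle wells; lower values mean less growth of the strain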; settings: S. cerevisiae deletion strains, growth OD, locus YNL298W, strain CLA4 (second series), active compounds read low
About 2,000 (36%) of roughly 5,500 compounds were called active. Roughly 18% stayed inconclusive and do not appear here. This is one part of the list.

Look over these answered cases.
| Smiles | normalized growth |
| --- | --- |
| CCCOc1ccccc1/C=N\NC(=S)Nc1cccc(F)c1 | 0.983 (inactive) |
| O=[N+]([O-])c1ccc(OCCO)c([N+](=O)[O-])c1 | 0.987 (inactive) |

Enquiry: Item under review: c1ccc(OCCOc2ccccn2)nc1 . Reported normalized growth?
Return: 0.978 (inactive)
